sequences and their reported soluble fraction (log2)
- protocolNotes: soluble fraction after stress (log2 fold change); higher = more stays soluble; pooled small domains, quantitative proteomics;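 also: 20 min heating vs room temperature control held 20 min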
- testContext: stress: 75 degC
Please reply with the number alone, leaving off any unit.

# biosequence, assayResult
rows = [
    ("HMDNVINDGMQVRFTGNVDINGTPLKIYDRIYTAEGISDDTVVLMLGNDVYARVYLSDVVPAD", -0.975),
    ("HMQYSIQVNKLLKAMREDVWYTANEILDLLKLKSKETLRKNYLDPAINNKLIILELPDKPTSRNQRYKI", -2.03),
    ("HMGASGVEVPDVAGMSTAQAVSSLEQKGFVVNRTESYDAGVEKGNVISQSPEGGTKAPNGSAVTIRISQGA", 0.831),
    ("HMAVRNTKQKQLVLSLLKNSGRPMTAGEIYRLAVQQYPNIAKSTVYRNLENLVSRGEVSQGMHQNGESFYS", -0.697),
    ("HMEDGRLPPPGTVLRREYKGRAVFVRVLPKGFEFEGEVYRSLSAIAAKVTGSHWNGFRFFGLHE", -3.01),
    ("HMIAAPFVVKDIRVDGVQPATGEAIISSLPVKVGQTATDADVSNVVRQLFSLNRFQNVQATREGNTLVIKV", -0.0493),
    ("HMEQWVSIEVEPGIRLDVALTEATQKSRSFIQNLIAEQRVLVNGQPKKANYKVRPGDHVELNYPEPT", -0.29),
]

We next turn to a different sequence, shown below.
Problem: Name the recorded soluble fraction (log2) for HMNEKAALIFNEWSDFVSKDDEANAQIKFDELITLYKKTGYTKIALLEVATKQASNGDIEGALAKYSLLID .
Result: 0.128
